- system under test: T1, cynomolgus Trop-2-His protein (cynomolgus, UniProt P09758 27-274 (human entry))
- T1 construct: also called cynmolgus Trop-His; Kactus Cat #TRP-CM121; not shown: His tag
- T1 chain: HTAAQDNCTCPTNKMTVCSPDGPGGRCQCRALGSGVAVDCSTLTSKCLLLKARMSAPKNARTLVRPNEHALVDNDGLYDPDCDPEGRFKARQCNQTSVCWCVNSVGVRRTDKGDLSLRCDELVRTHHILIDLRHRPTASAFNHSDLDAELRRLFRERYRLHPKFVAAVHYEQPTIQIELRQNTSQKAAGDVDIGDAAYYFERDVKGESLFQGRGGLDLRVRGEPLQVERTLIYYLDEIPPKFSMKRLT
- assay info: ELISA, coated Trop-2 protein
measured metric: EC50 (nM)
# output: bare number, implied unit nM

Query: // returns reported EC50 for input 9D7-2 (antibody, V domains shown) VH: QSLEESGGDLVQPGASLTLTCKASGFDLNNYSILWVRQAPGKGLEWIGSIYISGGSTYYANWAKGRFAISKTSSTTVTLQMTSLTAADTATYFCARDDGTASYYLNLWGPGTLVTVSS VL: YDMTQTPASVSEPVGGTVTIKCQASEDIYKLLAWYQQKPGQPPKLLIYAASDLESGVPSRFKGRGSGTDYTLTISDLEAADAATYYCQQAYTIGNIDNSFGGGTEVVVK
Reply: 0.014

Provenance of the data: patent US20250206841A1
